Target: Tyrosinase (Homo sapiens)
Sequence (whole entry): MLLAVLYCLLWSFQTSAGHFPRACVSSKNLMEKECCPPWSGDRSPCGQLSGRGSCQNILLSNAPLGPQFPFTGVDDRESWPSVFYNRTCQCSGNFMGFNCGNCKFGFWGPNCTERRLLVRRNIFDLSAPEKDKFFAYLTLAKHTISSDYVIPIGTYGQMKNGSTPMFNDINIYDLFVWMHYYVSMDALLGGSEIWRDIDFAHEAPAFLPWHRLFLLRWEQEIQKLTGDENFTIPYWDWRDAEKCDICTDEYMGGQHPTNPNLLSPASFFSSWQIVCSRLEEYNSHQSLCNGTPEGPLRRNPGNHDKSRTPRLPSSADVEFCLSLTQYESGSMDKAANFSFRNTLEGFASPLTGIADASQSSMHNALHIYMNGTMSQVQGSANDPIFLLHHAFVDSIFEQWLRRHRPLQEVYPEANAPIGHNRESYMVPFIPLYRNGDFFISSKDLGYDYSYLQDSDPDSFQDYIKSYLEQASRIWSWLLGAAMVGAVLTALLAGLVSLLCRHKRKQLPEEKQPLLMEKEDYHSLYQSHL
Experiment: Inhibition of tyrosinase in human melanocytes at 0.1 mM
Format: cell-based
metric.name: inhibition (%)

These solved cases illustrate the format of a correct answer.
{"smiles.repr": "COc1ccc(/C=C2\\Oc3cc(O)cc(O)c3C2=O)cc1", "result.units": "%", "inhibition": 11}
{"smiles.repr": "CCCc1ccc(/C=C2\\Oc3cc(O)cc(O)c3C2=O)cc1", "result.units": "%", "inhibition": 5}
{"smiles.repr": "CCc1ccccc1/C=C1\\Oc2cc(O)cc(O)c2C1=O", "result.units": "%", "inhibition": 0}
{"smiles.repr": "O=C1/C(=C/c2ccc(O)cc2)Oc2cc(O)cc(O)c21", "result.units": "%", "inhibition": 75}

P: CCOc1ccc(/C=C2\Oc3cc(O)cc(O)c3C2=O)cc1
Q: CCc1ccc(/C=C2\Oc3cc(O)ccc3C2=O)cc1
Prompt line: Form: Entry with minimum inhibition (choose one): P / Q Kindly give the label for the entry you pick.
Response line: Q
(Q: 0%, P: 5%)

====

Molecular target: Tyrosinase (Homo sapiens) (UniProt P14679)
Sequence (whole entry): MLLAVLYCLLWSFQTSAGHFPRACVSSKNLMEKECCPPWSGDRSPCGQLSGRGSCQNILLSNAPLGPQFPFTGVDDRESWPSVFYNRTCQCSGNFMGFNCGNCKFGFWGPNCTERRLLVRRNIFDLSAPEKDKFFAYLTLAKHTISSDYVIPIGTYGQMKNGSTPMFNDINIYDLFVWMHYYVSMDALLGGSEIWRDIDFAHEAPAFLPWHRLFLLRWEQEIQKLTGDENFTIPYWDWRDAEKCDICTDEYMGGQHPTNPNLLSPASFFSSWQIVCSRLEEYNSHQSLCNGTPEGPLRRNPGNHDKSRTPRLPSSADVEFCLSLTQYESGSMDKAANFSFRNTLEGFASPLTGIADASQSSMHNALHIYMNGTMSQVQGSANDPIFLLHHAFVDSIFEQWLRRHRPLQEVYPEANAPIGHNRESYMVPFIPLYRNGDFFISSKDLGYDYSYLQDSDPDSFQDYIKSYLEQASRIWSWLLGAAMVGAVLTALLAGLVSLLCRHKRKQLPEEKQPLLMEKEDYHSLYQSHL
Assay: Inhibition of tyrosinase in human melanocytes at 0.1 mM
Assay type: cell-based
metric.name: inhibition (%)

Known inhibition results, listed for orientation:
{"smiles.repr": "O=C1/C(=C/c2ccccc2O)Oc2cc(O)cc(O)c21", "measurement": 4}
{"smiles.repr": "CC(C)(C)c1ccc(/C=C2\\Oc3cc(O)cc(O)c3C2=O)cc1", "measurement": 0}
{"smiles.repr": "COc1cc(/C=C2\\Oc3cc(O)cc(O)c3C2=O)ccc1O", "measurement": 4}

A: O=C1/C(=C/c2ccccc2)Oc2cc(O)ccc21
B: O=C1/C(=C/c2ccccc2)Oc2cc(O)cc(O)c21
C: O=C1/C(=C/c2ccc(O)cc2)Oc2ccccc21
Prompt line: Returns the items ordered by inhibition, from maximum to minimum. Put the labels in the requested order and write them down.
Response line: C, B, A
(C: 39%, B: 3%, A: 0%)
